Data provenance: ChEMBL document CHEMBL1811796

Biological target: intestinal carboxylesterase (cocaine esterase) (Homo sapiens, UniProt O00748)
Sequence (O00748 whole entry): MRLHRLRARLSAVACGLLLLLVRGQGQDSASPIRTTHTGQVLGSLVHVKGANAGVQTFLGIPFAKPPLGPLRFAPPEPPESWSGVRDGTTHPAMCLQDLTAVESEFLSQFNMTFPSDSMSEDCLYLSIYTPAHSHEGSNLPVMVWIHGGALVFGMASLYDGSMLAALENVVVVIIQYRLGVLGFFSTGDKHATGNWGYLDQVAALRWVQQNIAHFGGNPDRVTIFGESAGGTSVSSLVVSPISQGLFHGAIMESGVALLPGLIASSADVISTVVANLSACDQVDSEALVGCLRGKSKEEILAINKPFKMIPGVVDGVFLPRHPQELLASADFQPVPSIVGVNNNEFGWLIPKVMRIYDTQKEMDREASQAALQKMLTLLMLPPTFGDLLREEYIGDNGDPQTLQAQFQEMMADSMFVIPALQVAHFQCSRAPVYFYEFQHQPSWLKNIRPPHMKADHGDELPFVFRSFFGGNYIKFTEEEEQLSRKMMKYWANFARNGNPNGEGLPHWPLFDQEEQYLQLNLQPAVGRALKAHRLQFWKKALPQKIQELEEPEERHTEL
Experiment: Inhibition of intestinal carboxylesterase in human U373MG cells using 4-methylumbelliferone acetate as substrate at 10 uM after 1 hrs pre-incubation by fluorimetry
Format: cell-based, U-373MG ATCC
Conditions: U373MG cells with intestinal carboxylesterase, probe 4-methylumbelliferone acetate
readoutType: inhibition at 1 h, 10 µM (%)
Form entry: value (%) — number only.

Ask | Quick one: give measured inhibition at 1 h, 10 µM for CCC(=O)C(=O)c1ccccc1
Reply | 70.3

###

Experiment: Cytotoxicity against human U373MG cells expressing human intestinal carboxylesterase after 4 days in drug free medium by coulter counter
Type: functional, cell-based, U-373MG ATCC
Conditions: U373 MG, 96 h
readoutType: IC50

Guide cases for IC50, answers given:
CCCCCCC(=O)C(=O)c1ccccc1    > 100 µM
CCCCCCC(=O)C(=O)CCCCCC    > 100 µM
O=C(C(=O)c1ccccc1)c1ccccc1    > 100 µM

Then there is this molecule:
Ask | Quick one: give measured IC50 for CCc1c2c(nc3ccc(OC(=O)N4CCC(N5CCCCC5)CC4)cc13)-c1cc3c(c(=O)n1C2)COC(=O)[C@]3(O)CC
Reply | 3.6 µM

###

Target: Liver carboxylesterase 1 (Oryctolagus cuniculus)
Sequence (P12337 whole entry): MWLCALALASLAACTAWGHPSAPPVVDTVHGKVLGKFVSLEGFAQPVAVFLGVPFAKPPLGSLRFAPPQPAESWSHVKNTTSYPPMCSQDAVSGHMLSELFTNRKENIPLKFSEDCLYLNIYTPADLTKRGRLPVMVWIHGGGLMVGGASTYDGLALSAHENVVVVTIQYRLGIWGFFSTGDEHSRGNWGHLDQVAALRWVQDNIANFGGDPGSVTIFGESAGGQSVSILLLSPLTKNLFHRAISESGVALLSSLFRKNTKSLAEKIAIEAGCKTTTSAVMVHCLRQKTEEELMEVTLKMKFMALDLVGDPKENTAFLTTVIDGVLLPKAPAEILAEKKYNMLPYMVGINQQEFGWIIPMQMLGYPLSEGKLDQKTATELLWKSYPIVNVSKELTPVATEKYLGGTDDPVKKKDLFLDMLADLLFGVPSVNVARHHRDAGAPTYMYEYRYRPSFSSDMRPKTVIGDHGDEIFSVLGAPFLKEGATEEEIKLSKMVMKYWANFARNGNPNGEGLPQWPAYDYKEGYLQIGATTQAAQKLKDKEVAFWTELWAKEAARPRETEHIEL
pKi: −log10 of the molar value.
MET means recorded pKi is 5 or above; NOT MET means it is below 5.

Solved cases (4 shown):
O=C(Nc1ccccc1)C(=O)Nc1ccccc1    NOT MET
CCCC(=O)C(=O)CCC    NOT MET
O=C(C(=O)C1CCCCC1)C1CCCCC1    MET
O=C(Cc1ccccc1)C(=O)C(Br)c1ccccc1 (stereo unspecified)    MET

Ask | Could you tell me if the measured pKi of O=C(Cc1ccccc1)C(=O)Cc1ccccc1 reaches 5 or more?
Reply | NOT MET

Ask | Could you tell me if the measured pKi of CCCCCCC(=O)C(=O)c1ccccc1 reaches 5 or more?
Reply | MET

Ask | Could you tell me if the measured pKi of O=C(Sc1ccccc1)C(=O)Sc1ccccc1 reaches 5 or more?
Reply | NOT MET

Ask | Could you tell me if the measured pKi of CCC(=O)C(=O)CC reaches 5 or more?
Reply | NOT MET

Ask | Could you tell me if the measured pKi of O=C(Oc1ccccc1)C(=O)Oc1ccccc1 reaches 5 or more?
Reply | NOT MET

Ask | Could you tell me if the measured pKi of CCCCCC(=O)C(=O)c1ccccc1 reaches 5 or more?
Reply | MET
